test: Human HepG2 cell viability assay in 384 well format; format: toxicity, cell-based; parameters: dose 125 nL, time 70.5 hour; concentration not given beside the values; conditions: HepG2 cells, read-out: Inhibition
Recorded cytotoxicity at 70.5 h by entry
Provide only the numeric value, understood in %.

Here's what some known entries look like.
1) Cc1ccn(-c2ccccc2NCc2cccnc2C)n1 = -7.82
2) O=C(C1CC(=O)N(c2ccccc2Br)C1)N1CCC2(CC1)OCCO2 (stereo unspecified) = -6.47
3) Nc1cnc(-c2cccc3ccnn23)cn1 = 14.2
4) Cc1cc(CN2CCCC(CNC(=O)Cn3cccn3)C2)oc1C (stereo unspecified) = -6.83
5) Cc1ccc(F)c(NC(=O)CCC(=O)N(C)Cc2nc(C)c[nH]2)c1 = -5.55
6) COc1cc(C(=O)N2CCCC2CC(=O)c2cnn(C)c2)ccc1F (stereo unspecified) = 8.93
7) c1cc(CO[C@@H]2CN(Cc3ccoc3)[C@@H]3CCCO[C@@H]32)ccn1 = -16
8) O=C(CCCn1cncn1)NC1(c2ccc(Cl)cc2)CCC1 = -1.83
9) Cc1nc(C(C)C)sc1C(=O)NCCNc1ncccc1C#N = -1.44
10) COc1ccc(N(C(=O)Cc2ccc(C)nc2)C(C)C)cc1F = -5.23

(Q) Find the recorded cytotoxicity at 70.5 h belonging to COCC(=O)Nc1ccc(-c2noc([C@@H]3CCCN3)n2)cn1 and report it.
(A) -0.348

(Q) Fill in the blank: the reported cytotoxicity at 70.5 h of COc1cccc(Nc2nc(C3CCCNC3)c3sc(C)c(C)n23)c1 (stereo unspecified) is ____.
(A) -12

Where these numbers come from: ChEMBL document CHEMBL3507680
